Values from ChEMBL document CHEMBL1201862

System: MOLT-4
Assay: NCI tumour cell line growth inhibition, 48 h
Activity calls are given as the source filed them. Rule as the data show it: active = GI50 up to about 1.1 µM and inactive = higher.
Response enum: 1 (yes) (active), 0 (no) (inactive)

Query :: Entry O=C(O)c1ccccc1CC(Cc1ccccc1)C(=O)O (stereo unspecified) : call = ?
Result :: 0 (no)

Query :: Entry COc1ccc(C2C(C#N)=C(O)NC(O)=C2C#N)cc1OC : call = ?
Result :: 0 (no)

Query :: Entry N#Cc1cc(-c2nc3c(F)cccc3s2)ccc1N : call = ?
Result :: 0 (no)

Query :: Entry COc1cc2c(cc1OC)[C@@](C)(C(O)C(O)C(C)(C)O)NCC2 (stereo partly specified) : call = ?
Result :: 0 (no)

Query :: Entry Cc1ccc(C(=O)Cc2nc3ncccc3[nH]c2=O)cc1 : call = ?
Result :: 0 (no)

Query :: Entry O=C1Oc2ccccc2C(=O)/C1=C/N1C(=O)/C(=C/c2ccc([N+](=O)[O-])cc2)SC1=S : call = ?
Result :: 0 (no)

Query :: Entry Cc1ccccc1NC(=O)C1C(=O)N(c2ccccc2C)C(=O)/C1=N\NC(N)=O (stereo unspecified) : call = ?
Result :: 0 (no)

Query :: Entry O=C(C[n+]1ccccc1)N/N=C(\Cc1nc2ccc([N+](=O)[O-])cc2nc1O)C(=O)Nc1cc(Cl)c(Cl)cc1Cl : call = ?
Result :: 0 (no)

Query :: Entry O=[N+]([O-])c1cc(Cl)ccc1OCc1ccccc1 : call = ?
Result :: 0 (no)

Query :: Entry COc1ccc(C2SC(C)C(=O)N2c2nc(-c3nc(-c4ccc(Cl)cc4)cs3)cs2)cc1 (stereo unspecified) : call = ?
Result :: 0 (no)

Query :: Entry COc1ccc(/C=C/C(=O)c2ccccc2)cc1OC : call = ?
Result :: 0 (no)

Query :: Entry CCOC(=O)C1C(=O)CC(C)(O)C(C(=O)OCC)C1c1ccc(O)c(OC)c1 (stereo unspecified) : call = ?
Result :: 0 (no)

Query :: Entry C/C(=N\Nc1ccc([N+](=O)[O-])cc1[N+](=O)[O-])c1sc(-n2nc(-c3ccccc3)cc2-c2ccccc2)nc1C : call = ?
Result :: 0 (no)

Query :: Entry CCOC(CN(C)C(=O)OCC(Cl)(Cl)Cl)OCC : call = ?
Result :: 0 (no)

Query :: Entry O=C(N=C1N(c2ccccc2)C(=O)C(=O)N1c1ccccc1)c1ccccc1 : call = ?
Result :: 0 (no)

Query :: Entry CC(=O)C1=CCC2c3[nH]c4ccccc4c3CCN2C1 (stereo unspecified) : call = ?
Result :: 0 (no)

Query :: Entry O=C(O)CS : call = ?
Result :: 0 (no)

Query :: Entry O=C1c2c(F)c(F)c(F)c(F)c2SC2=Nc3cccc4cccc(c34)N12 : call = ?
Result :: 0 (no)

Query :: Entry COc1cccc(CC2C(=O)N/C(=N\C(C)=O)N2C)c1OC(C)=O (stereo unspecified) : call = ?
Result :: 0 (no)

Query :: Entry Cc1[nH]c2ccccc2c1C1Cc2ccccc2N1C(=O)/C=C/C(=O)O (stereo unspecified) : call = ?
Result :: 0 (no)

Query :: Entry CSC1SCC2C(=O)N(C)C3(CC3C)C(=O)OCC(NC(=O)c3nc4ccccc4cc3O)C(=O)NC(C)C(=O)N(C)C1C(=O)N(C)C1(CC1C)C(=O)OCC(NC(=O)c1nc3ccccc3cc1O)C(=O)NC(C)C(=O)N2C (stereo unspecified) : call = ?
Result :: 1 (yes)
